# Tested on: BT-549 breast
# PROTOCOL_SUMMARY: NCI tumour cell line growth inhibition, 48 h

{"columns": ["SAMPLE_SMILES", "GI50"],
 "data": [
  ["C=C1C(=O)O[C@H]2[C@H]1CC/C(COC(=O)/C=C\\C(=O)NCc1ccc(Cn3c(=O)sn(CCCC)c3=O)cc1)=C\\CC[C@@]1(C)O[C@@H]21", "0.909 µM"],
  ["O=C(Nc1ccc(F)cc1)c1cc(S(=O)(=O)Nc2nc3ccccc3o2)c(SCc2ccccc2)cc1Cl", "18.5 µM"],
  ["O=C1NC(=O)C(c2cccc([N+](=O)[O-])c2)=C1Nc1cc(Cl)c(O)c(Cl)c1", "> 16.2 µM"],
  ["CCOC(=O)c1c(NC(=O)c2cccc(C(F)(F)F)c2)sc2c(CN(C)C)c(O)ccc12", "12.2 µM"],
  ["COc1cc2c3c(n(CCCOC(=O)C(F)(F)F)c(=O)c2cc1OC)-c1cc2c(cc1C3=O)OCO2", "0.202 µM"],
  ["Cn1cc(C2=C(c3cccc(Br)c3)C(=O)NC2=O)c2ccccc21", "15.1 µM"],
  ["N#Cc1c(N/N=C/c2ccc(Cl)cc2Cl)nc(N)nc1N1CCCC1", "> 100 µM"],
  ["O=C(Nc1ccc(-n2ccc3c(NC(=O)c4ccccc4)nccc32)cc1)Nc1ccc(Cl)c(Cl)c1", "3.08 µM"],
  ["NC(=O)c1cc(S(=O)(=O)Nc2nnc(-c3ccccc3)c(-c3ccccc3)n2)c(SCc2ccccc2)cc1Cl", "> 53.1 µM"],
  ["CCN(Cc1ccccc1C)c1ccc(CO)c(Cl)c1", "15.8 µM"],
  ["C1=C\\COCc2cc(ccc2OCCN2CCCC2)Nc2nccc(n2)-c2cccc(c2)COC/1", "4.67 µM"],
  ["CC[C@H]1CN2CCc3cc(OC)c(OC)cc3[C@@H]2C[C@@H]1C[C@H]1NCCc2c1[nH]c1ccc(O)cc21", "0.558 µM"],
  ["COc1cc(OC)c(/C=C/c2c3ccccc3cc[n+]2C)c(OC)c1", "1.58 µM"]
]}

====

// reported TGI per item
# System: MOLT-4 leukemia
# PROTOCOL_SUMMARY: NCI tumour cell line growth inhibition, 48 h

{"columns": ["COMPOUND", "EXPERIMENTAL_TARGET", "TGI"],
 "data": [
  ["CN1C(=O)CSC1=S", "MOLT-4 leukemia", "> 100 µM"],
  ["N#CC(C(=O)C(=O)Nc1ccc(Cl)cc1)c1ccccc1 (stereo unspecified)", "MOLT-4 leukemia", "> 100 µM"],
  ["Ic1cccc(/C=C/CN2CCN(CCOC(c3ccccc3)c3ccccc3)CC2)c1", "MOLT-4 leukemia", "35.9 µM"],
  ["O=P1(c2ccccc2)CCCCC1", "MOLT-4 leukemia", "> 100 µM"],
  ["[N-]=[N+]=Nc1cc(=O)n2c3c(cccc13)CCC2", "MOLT-4 leukemia", "> 100 µM"],
  ["COc1c[c]([Hg][O]C(C)=O)c(OC)c(NC(=O)CC(C)=O)[c]1[Hg][O]C(C)=O", "MOLT-4 leukemia", "6.85 µM"]
]}

====

# System: SK-OV-3 ovarian
# PROTOCOL_SUMMARY: NCI tumour cell line growth inhibition, 48 h
// reported TGI per item

{"columns": ["COMPOUND", "TGI"],
 "data": [
  ["O=[N+]([O-])/C(C(Cl)=C(Cl)Cl)=C(/Nc1ccccc1)SCc1ccccc1", "> 100 µM"],
  ["O=C(CCc1cc(O)ccc1O)OCCc1ccccc1", "> 100 µM"],
  ["CN(C)CC1CCC/C(=C\\c2ccc(Cl)cc2)C1=O (stereo unspecified)", "23.2 µM"],
  ["O=C1NC(=NCCc2cccc(Cl)c2)S/C1=C\\c1ccc2ncccc2c1", "> 25 µM"],
  ["COc1ccc(C2OC(N)=C(C#N)C3=C2CCCC3C)cc1OC (stereo unspecified)", "> 100 µM"],
  ["CCn1sc2ccccc2c1=O", "> 54.9 µM"],
  ["O=S1(=O)Cc2ccc3c4c2-c2c(ccc5ccc(c-4c25)CS(=O)(=O)C3)C1", "> 100 µM"],
  ["O=C(O)c1ccc(OCc2ccccc2)c(Cl)c1", "> 100 µM"],
  ["NC(=O)c1cc(S(=O)(=O)Nc2nnc(-c3ccccc3)c(-c3ccccc3)n2)c(SCc2ccccc2)cc1Cl", "> 100 µM"],
  ["CC(=O)N(CCc1ccccc1)C(C#N)c1ccccc1 (stereo unspecified)", "> 100 µM"],
  ["CCOP(=O)(OCC)OC1C=CC2CCC1C2 (stereo unspecified)", "> 100 µM"]
]}

====

// reported TGI per item
# Test system: DLD-1 colon
# PROTOCOL_SUMMARY: NCI tumour cell line growth inhibition, 48 h

{"columns": ["MOLECULE", "EXPERIMENTAL_TARGET", "TGI"],
 "data": [
  ["Cc1nc([N+](=O)[O-])cn1CC(=N)N", "DLD-1 colon", "> 100 µM"],
  ["Cc1cc(NS(=O)(=O)c2ccc(Nc3c4ccccc4nc4c(C(=O)N5CCN(CCO)CC5)ccc(Cl)c34)cc2)no1", "DLD-1 colon", "> 100 µM"],
  ["C/C(CC(=O)Nc1cccc(Cl)c1C)=N\\NC(=O)c1ccncc1", "DLD-1 colon", "> 100 µM"],
  ["O=S(=O)(c1ccccc1)C1CN2OC1(S(=O)(=O)c1ccccc1)CC2c1ccc(Br)cc1 (stereo not given)", "DLD-1 colon", "> 100 µM"],
  ["Cc1c(/C=N/NC(=O)c2ccc(Cl)cc2)c(=O)n(-c2ccccc2)n1C", "DLD-1 colon", "> 100 µM"],
  ["COC1(OC)CC2C(=O)N(Cc3ccccc3)C1C=C2S(=O)(=O)c1ccccc1 (stereo not given)", "DLD-1 colon", "27.6 µM"],
  ["N#CC(OC1OC(COC2OC(CO)C(O)C(O)C2O)C(O)C(O)C1O)c1ccccc1 (stereo not given)", "DLD-1 colon", "> 225 µM"],
  ["S=c1[nH]c(=S)c2nnn(-c3ccccc3)c2[nH]1", "DLD-1 colon", "> 100 µM"],
  ["Cc1ccc(C)c(N=C2NC(=O)C(CC(=O)Nc3ccc(Cl)cc3Cl)S2)c1 (stereo not given)", "DLD-1 colon", "> 100 µM"],
  ["O=C(O)CC(NC(=O)CP(=O)(O)O)C(=O)O (stereo not given)", "DLD-1 colon", "9920 µM"]
]}

====

# Test system: UO-31 renal
# PROTOCOL_SUMMARY: NCI tumour cell line growth inhibition, 48 h

{"columns": ["SAMPLE_SMILES", "REL", "TGI / µM"],
 "data": [
  ["COc1cc2c(OC)cc1CSCc1sc(C)c(c1Br)CSC2", ">", 100],
  ["COc1ccc(/C(Cl)=C(\\C=O)c2ccc(OC)c(OC)c2)cc1", ">", 100],
  ["CC(=O)Oc1ccc2c(c1)c1c(=O)oc(C)nc1n2Cc1ccccc1", "=", 13.8],
  ["Nc1nc(Cl)c(N)c(NCC2(CO)CCCC2)n1", ">", 100],
  ["CC(=O)O/C(=C1\\C[C@H]2[C@@H]3CC=C4C[C@@H](OC(C)=O)CC[C@]4(C)[C@H]3CC[C@]2(C)C1=O)C(F)(F)F", "=", 32.1]
]}

====

# Test system: UACC-257 melanoma
# PROTOCOL_SUMMARY: NCI tumour cell line growth inhibition, 48 h

{"columns": ["COMPOUND", "TGI"],
 "data": [
  ["CCOP(=O)(OCC)OC1C=CC2CCC1C2 (stereo not given)", "> 100 µM"],
  ["NC(=O)OCCn1cc(-c2nc(-c3c[nH]c4ncccc34)cs2)c2ccccc21", "7.88 µM"],
  ["O=C(O)CC(NC(=O)CP(=O)(O)O)C(=O)O (stereo not given)", "> 10000 µM"],
  ["COc1ccc(-c2coc3c4c(ccc3c2=O)OCO4)cc1OC", "> 100 µM"],
  ["O=C(Nc1ccc(-n2ccc3c(NC(=O)c4ccccc4)nccc32)cc1)Nc1ccc(Cl)c(Cl)c1", "4.52 µM"],
  ["CN(C)CC1CCC/C(=C\\c2ccc(Cl)cc2)C1=O (stereo not given)", "12.3 µM"],
  ["O=CN1CCN(CC(O)CN2CCCCC2)CC1 (stereo not given)", "> 100 µM"],
  ["CC1(C)CC(=O)C(C=NC(=O)c2ccncc2)=C(O)C1", "> 100 µM"],
  ["COC1=CC2C(c3cc4ccccc4n3S(=O)(=O)c3ccccc3)CC1CN2C(=O)OCc1ccccc1 (stereo not given)", "> 100 µM"],
  ["CN(C)c1ccc(/C=N\\NC(=O)Nc2cccc3ccccc23)cc1", "34.6 µM"],
  ["O=C(O)c1nc2ccc(C(F)(F)F)cc2nc1NCc1ccc(F)cc1", "76.2 µM"],
  ["Oc1cc(O)cc(-c2nc3cc(F)ccc3s2)c1", "45.6 µM"],
  ["Cn1cc(C2=C(c3cccc(Br)c3)C(=O)NC2=O)c2ccccc21", "> 25 µM"],
  ["N#CC(OC1OC(COC2OC(CO)C(O)C(O)C2O)C(O)C(O)C1O)c1ccccc1 (stereo not given)", "> 225 µM"],
  ["Cc1ccc(S(=O)(=O)c2ccc(N)cc2)cc1", "> 100 µM"],
  ["CCN(Cc1ccccc1C)c1ccc(CO)c(Cl)c1", "1.67 µM"],
  ["C#COc1cccc(Nc2c(C#N)cnc3ncc(NC(=O)CCl)cc23)c1", "> 62.5 µM"],
  ["C#CC(C)(C)OC(=O)C(=[N+]=[N-])C(C)=O", "> 10 µM"],
  ["C=C(C(=O)O)[C@@H]1C[C@@H](OC(C)=O)[C@]2(C)CC/C=C(\\C)CCC[C@H](C)[C@H](O)[C@@H]1O2", "> 100 µM"],
  ["COc1cccc2cc(C(=O)O)c(=O)oc12", "> 100 µM"],
  ["Cc1nc([N+](=O)[O-])cn1CC(=N)N", "> 100 µM"],
  ["O=P1(c2ccccc2)CCCCC1", "> 100 µM"],
  ["CN1C(=O)c2ccccc2OC12C=Cc1ccc(O)cc1O2 (stereo not given)", "43.6 µM"],
  ["CCC(C)C1NC(=O)C(NC(=O)c2c3[nH]c4c(C(=O)NC5C(=O)NC(C(C)CC)C(=O)N6CCCC6C(=O)N(C)CC(=O)N(C)C(C(C)C)C(=O)OC5C)ccc(C)c4oc-3c(C)c(=O)c2=O)C(C)OC(=O)C(C(C)C)N(C)C(=O)CN(C)C(=O)C2CCCN2C1=O (stereo not given)", "38.6 µM"],
  ["O=C(O)c1ccc(OCc2ccccc2)c(Cl)c1", "> 100 µM"],
  ["O=C(N[C@@H](c1ccccc1)[C@@H](O)C(=O)OCc1ccc([N+](=O)[O-])cc1)c1ccccc1", "> 100 µM"],
  ["[N-]=[N+]=Nc1cc(=O)n2c3c(cccc13)CCC2", "> 100 µM"],
  ["O=C1NC(=O)/C(=C\\c2ccccc2)C2=C1CCCC2", "22.5 µM"],
  ["CC(C)N(C(=O)C12C3C4C1(I)C1C2C3(I)C41C(=O)N(C(C)C)C(C)C)C(C)C (stereo not given)", "> 100 µM"],
  ["O=C(CCc1cc(O)ccc1O)OCCc1ccccc1", "28.9 µM"],
  ["CCOC(=O)/C=C(/C)Sc1cc(O)c2ccccc2c1O", "3.87 µM"],
  ["OCCCNc1nccc(-c2c(-c3ccc(F)cc3)nn3cc(C(F)(F)F)ccc23)n1", "> 25 µM"],
  ["COc1ccc(-n2cnn3c(=O)c4cn[nH]c4nc23)cc1", "> 10 µM"],
  ["Fc1ccc(C(=C2CCN(CCc3ccc4[nH]c(=S)[nH]c4c3)CC2)c2ccc(F)cc2)cc1", "2.4 µM"],
  ["Nc1nc(NCC2(CO)CC2)cc(=O)[nH]1", "> 100 µM"]
]}

Ref: PubChem BioAssay (NCI)
